B1: GNB5 (parent)
chain: DINSVRYYPSGDAFASGSDDATCR

# Variants of: B1
# EXPERIMENT NOTES: protein stability index of a GFP-peptide fusion (GPS, HEK-293T) (PSI 1-6); higher = more stable;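 note: lentivirally expressed fusions sorted by FACS into six bins by GFP to DsRed ratio, PSI derived from sequencing read proportions per bin multiplied by bin number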
# CONDITION DESCRIPTION: c terminus: a fixed tail appended
Measured protein stability index values are reported for all entries that follow.
Answer as a number with no unit attached.

Use the examples below as a reference point.
1) R24A | 4.03
2) N3P | 4.64
3) R24P | 4.3
4) P9N | 3.82
5) F14K | 4.12
6) R6Q | 4.64

# input I have this variant here, "Y8E" , and I need its recorded protein stability index.
# output 4.8
